- Tested on: K562 cells
- TEST SUMMARY: Cell growth inhibitory activity assay (CellTiter-Glo), K562 cells
- Format: cell-based
- APPLIED CONDITIONS: Homo sapiens, 72 h, CTG cell viability
pIC50: −log10 of the molar value.
OUTCOME MEASURE: pIC50

Please review the following examples before continuing.
{"MOLECULE": "C[C@@H]1CN(C)CCc2nc3cc(C(=O)Nc4ccc(OC(F)(F)Cl)cc4)cc(-c4cnc5c(c4)C(=O)N(C4CC4)C5)c3n21", "pIC50": "6.00 to 7.30"}
{"MOLECULE": "COc1nc(OC)nc(-n2cc3c(n2)-c2cc(-c4cc(C(=O)Nc5ccc(OC(F)(F)Cl)cc5)cc5nc6n(c45)[C@H](C)COC6)cnc2C3)n1", "pIC50": "≥ 8.30"}
{"MOLECULE": "CC1(C)C(=O)Nc2cc(C(=O)Nc3ccc(OC(F)(F)Cl)cc3)cc(-c3cnc4c(c3)-c3nn(-c5ncccn5)cc3C4)c21", "pIC50": "≥ 8.30"}
{"MOLECULE": "C[C@@H]1COCc2nc3cc(C(=O)Nc4ccc(OC(F)(F)Cl)cc4)cc(-c4cnc5c(c4)-c4nn(CCOC(C)(C)C)cc4C5)c3n21", "pIC50": "7.30 to 8.30"}
{"MOLECULE": "C[C@@H]1COCc2nc3cc(C(=O)Nc4ccc(OC(F)(F)Cl)cc4)cc(-c4cnc5c(c4)-c4nn(-c6nccc(-c7ccc(F)cc7)n6)cc4C5)c3n21", "pIC50": "≥ 8.30"}

Now let's try a different one.
Tell us which pIC50 value is on record for C[C@@H]1COCc2nc3cc(C(=O)Nc4ccc(OC(F)(F)Cl)cc4)cc(-c4cnc5c(c4)-c4nn(-c6ncccn6)cc4C5F)c3n21 (stereo partly drawn)
≥ 8.30

###

pIC50 listing for selected molecules.
- Tested on: K562 cells
- TEST SUMMARY: Cell growth inhibitory activity assay (CellTiter-Glo), K562 cells
- Type: cell-based
- APPLIED CONDITIONS: Homo sapiens, 72 h, CTG cell viability
pIC50: −log10 of the molar value.

The following molecules have reported results that may help.
{"SMILES STR": "C[C@@H]1CCOCc2nc3cc(C(=O)Nc4ccc(OC(F)(F)Cl)cc4)cc(-c4cnc5c(c4)C(=O)N(C)C5)c3n21", "TESTED SYSTEM": "K562 cells", "OUTCOME MEASURE": "pIC50", "EXPERIMENTAL RESULT": "≥ 8.30"}
{"SMILES STR": "C[C@@H]1COCc2nc3cc(C(=O)Nc4ccc(OC(F)(F)Cl)cc4)cc(-c4cnc5c(c4)-c4nn(C(F)F)cc4C5)c3n21", "TESTED SYSTEM": "K562 cells", "OUTCOME MEASURE": "pIC50", "EXPERIMENTAL RESULT": "≥ 8.30"}

Now take the following molecule into account.
Fill in pIC50 for N#Cc1ccc(-c2ccnc(-n3cc4c(n3)-c3cc(-c5cc(C(=O)Nc6ccc(OC(F)(F)Cl)cc6)cnc5N5CC[C@@H](F)C5)cnc3C4)n2)cn1 tested with K562 cells.
≥ 8.30

###

IC50 overview
- TESTED SYSTEM: Ba/F3 BCR-ABL1 A424T (Homo sapiens, UniProt P00519+P11274, A424T)
- Construct: BCR (N-terminal fusion partner of the oncoprotein)
- TEST SUMMARY: Cell growth inhibitory activity assay (CellTiter-Glo), Ba/F3 BCR-ABL1 A424T cells
- APPLIED CONDITIONS: 72 h, CTG cell viability

Consider the following illustrative entries.
{"COMPOUND": "CC(=O)NC1CCC2c3cc(C(=O)Nc4ccc(OC(F)(F)Cl)cc4)cc(-c4cnc5c(c4)C(=O)N(C)C5)c3N(C(C)C)C12 (racemic)", "TESTED SYSTEM": "Ba/F3 BCR-ABL1 A424T (Homo sapiens, UniProt P00519+P11274, A424T)", "IC50": "50 to 1000 nM"}
{"COMPOUND": "[2H]C([2H])([2H])C([2H])(n1cc2c(n1)-c1cc(-c3cc(C(=O)Nc4ccc(OC(F)(F)Cl)cc4)cc4nc5n(c34)[C@H](C)COC5)cnc1C2)C([2H])([2H])[2H]", "TESTED SYSTEM": "Ba/F3 BCR-ABL1 A424T (Homo sapiens, UniProt P00519+P11274, A424T)", "IC50": "5 to 50 nM"}
{"COMPOUND": "C[C@@H]1COCc2nc3cc(C(=O)Nc4ccc(OC(F)(F)Cl)cc4)cc(-c4cnc5c(c4)-c4nn(-c6cncnc6)cc4C5)c3n21", "TESTED SYSTEM": "Ba/F3 BCR-ABL1 A424T (Homo sapiens, UniProt P00519+P11274, A424T)", "IC50": "5 to 50 nM"}
{"COMPOUND": "C[C@@H]1COCc2nc3cc(C(=O)Nc4ccc(OC(F)(F)Cl)cc4)cc(-c4cnc5c(c4)C(=O)N(C)C5)c3n21", "TESTED SYSTEM": "Ba/F3 BCR-ABL1 A424T (Homo sapiens, UniProt P00519+P11274, A424T)", "IC50": "50 to 1000 nM"}
{"COMPOUND": "C[C@@H]1COCc2nc3cc(C(=O)Nc4ccc(OC(F)(F)Cl)cc4)cc(-c4cnc5c(c4)-c4nn(-c6ncc(F)cn6)cc4C5)c3n21", "TESTED SYSTEM": "Ba/F3 BCR-ABL1 A424T (Homo sapiens, UniProt P00519+P11274, A424T)", "IC50": "≤ 5 nM"}

Consider the compound C[C@@H]1COCc2nc3cc(C(=O)Nc4ccc(OC(F)(F)Cl)cc4)cc(-c4cnc5c(c4)C(=O)N(C4CC4)C5)c3n21 and give its recorded IC50.
5 to 50 nM

###

- TESTED SYSTEM: Ba/F3 BCR-ABL1 WT (Homo sapiens, UniProt P00519+P11274)
- Construct: BCR (N-terminal fusion partner of the oncoprotein)
- TEST SUMMARY: Cell growth inhibitory activity assay (CellTiter-Glo), Ba/F3 BCR-ABL1 WT cells
- APPLIED CONDITIONS: 72 h, CTG cell viability
pIC50: −log10 of the molar value.
OUTCOME MEASURE: pIC50

{"COMPOUND": "O=C(Nc1ccc(OC(F)(F)Cl)cc1)c1cnc(N2CC[C@H](F)C2)c(-c2cnc3c(c2)-c2nn(-c4ncc(F)cn4)cc2C3)c1 [T-13]", "EXPERIMENTAL RESULT": "≥ 8.30"}
{"COMPOUND": "Cc1cnc(-n2cc3c(n2)-c2cc(-c4cc(C(=O)Nc5ccc(OC(F)(F)Cl)cc5)cnc4N4CC[C@@H](F)C4)cnc2C3)nc1 [T-14]", "EXPERIMENTAL RESULT": "≥ 8.30"}
{"COMPOUND": "O=C(Nc1ccc(OC(F)(F)Cl)cc1)c1cnc(N2CC[C@@H](F)C2)c(-c2cnc3c(c2)-c2c(cnn2-c2ncc(F)cn2)C3F)c1 (stereo partly drawn) [T-131]", "EXPERIMENTAL RESULT": "6.00 to 7.30"}

Provide one value: measured pIC50 of C[C@@H]1CN(C)Cc2nc3cc(C(=O)Nc4ccc(OC(F)(F)Cl)cc4)cc(-c4cnc5c(c4)-c4n[nH]cc4C5)c3n21 [T-40]
≥ 8.30

Using known records, supply pIC50 for O=C(Nc1ccc(OC(F)(F)Cl)cc1)c1cnc(N2CC[C@@H](F)C2)c(-c2cnc3c(c2)-c2c(cnn2-c2ncc(F)cn2)C3)c1 [T-6-B]
≥ 8.30

Give a short answer stating reported pIC50 for C[C@@H]1COCc2nc3cc(C(=O)Nc4ccc(OC(F)(F)Cl)cc4)cc(-c4cnc5c(c4)-c4nn(-c6nccc(N7CCOCC7)n6)cc4C5)c3n21 [T-88] .
≥ 8.30

###

Below, each of the molecules is paired with its reported pIC50 value.
- TESTED SYSTEM: Ba/F3 BCR-ABL1 T315I (Homo sapiens, UniProt P00519+P11274, T315I)
- Construct: BCR (N-terminal fusion partner of the oncoprotein)
- TEST SUMMARY: Cell growth inhibitory activity assay (CellTiter-Glo), Ba/F3 BCR-ABL1 T315I cells
- APPLIED CONDITIONS: 72 h, CTG cell viability
pIC50: −log10 of the molar value.

Sample answers from the record:
{"MOLECULE": "C[C@@H]1CCOCc2nc3cc(C(=O)Nc4ccc(OC(F)(F)Cl)cc4)cc(-c4cnc5c(c4)C(=O)N(C)C5)c3n21 [T-39]", "TESTED SYSTEM": "Ba/F3 BCR-ABL1 T315I (Homo sapiens, UniProt P00519+P11274, T315I)", "pIC50": "6.00 to 7.30"}
{"MOLECULE": "N#Cc1cnc(-n2cc3c(n2)-c2cc(-c4cc(C(=O)Nc5ccc(OC(F)(F)Cl)cc5)c(N)nc4N4CC[C@@H](F)C4)cnc2C3)nc1 [T-134]", "TESTED SYSTEM": "Ba/F3 BCR-ABL1 T315I (Homo sapiens, UniProt P00519+P11274, T315I)", "pIC50": "6.00 to 7.30"}
{"MOLECULE": "CCn1cc2c(n1)-c1cc(-c3cc(C(=O)Nc4ccc(OC(F)(F)Cl)cc4)cc4nc5n(c34)[C@H](C)COC5)cnc1C2 [T-18]", "TESTED SYSTEM": "Ba/F3 BCR-ABL1 T315I (Homo sapiens, UniProt P00519+P11274, T315I)", "pIC50": "≥ 8.30"}

Give pIC50 for O=C(Nc1ccc(OC(F)(F)Cl)cc1)c1cnc(N2CC[C@@H](F)C2)c(-c2cnc3c(c2)-c2nn(-c4ncc(C(F)(F)F)cn4)cc2C3)c1 [T-15]
7.30 to 8.30
